Origin of measurements: ChEMBL document CHEMBL1201862

Tested on: MDA-MB-231
Test: NCI tumour cell line growth inhibition, 48 h
Calls of active or inactive are those of the source. Rule as the data show it: active = GI50 up to about 1.1 µM and inactive = higher. Square brackets hold non-standard residues; d marks the D form. Peptide text beside a SMILES is read from it. Ac5c = NC1(C(=O)O)CCCC1

COMPOUND: Cc1ccnc(NC(=S)Nc2ccccc2Cl)c1
GI50: 2.23 µM (inactive)
//
COMPOUND: CC[C@@]12CCC(=S)N(CCSc3ccccc3)[C@@H]1c1c(n(S(=O)(=O)c3ccc(OC)cc3)c3ccccc13)CC2
GI50: > 100 µM (inactive)
//
COMPOUND: CC1=C(C#N)c2nc3ccccc3n2C(=O)C1(C)CCO (stereo not given)
GI50: > 100 µM (inactive)
//
COMPOUND: Cc1ccc(/C(Cl)=C/C=C(C#N)C#N)cc1
GI50: 2.64 µM (inactive)
//
COMPOUND: C[C@@H](C(=O)O)c1ccc(-c2ccccc2)c(F)c1 [TARENFLURBIL]
GI50: > 100 µM (inactive)
//
COMPOUND: COc1cc(/C=C2\C(=O)N(c3cccc([N+](=O)[O-])c3)C(c3ccccc3)S2(=O)=O)cc(OC)c1OC (stereo not given)
GI50: > 100 µM (inactive)
//
COMPOUND: O=[N+]([O-])C(=C/c1cccc2ccccc12)/C(=C\c1cccc2ccccc12)[N+](=O)[O-]
GI50: 2.1 µM (inactive)
//
COMPOUND: CCN(CC)C(=O)N[C@@H](CC(C)C)C(=O)NC
GI50: > 100 µM (inactive)
//
COMPOUND: CN1C(=O)C(O)CC1c1ccccc1F (stereo not given)
GI50: > 100 µM (inactive)
//
COMPOUND: COC(=O)c1ccc(NCc2cc(O)ccc2O)cc1O
GI50: 11 µM (inactive)
//
COMPOUND: Nc1nc(Cl)c(/C=N\O)c(NCC2(CO)CC(=O)C2)n1
GI50: 80.7 µM (inactive)
//
COMPOUND: COc1ccc(C[C@@H]2OC3(C=CC(=O)CC3Sc3ccccc3)O[C@H]2Cc2ccc(OC)cc2)cc1 (stereo not given in full)
GI50: 2.5 µM (inactive)
//
COMPOUND: CCCCCCCCC/C=C1\CC(CO)(COC(=O)c2ccccc2)OC1=O (stereo not given)
GI50: 19.3 µM (inactive)
//
COMPOUND: O=C1C(c2ccccc2)=C(c2ccccc2)C1(Cl)Cl
GI50: 3.28 µM (inactive)
//
COMPOUND: O=C(O)CNCCc1ccccc1
GI50: > 100 µM (inactive)
//
COMPOUND: O=C(Oc1ccc(C(c2c(O)c3ccccc3oc2=O)c2c(O)c3ccccc3oc2=O)cc1)c1ccc(C(=O)c2ccccc2)cc1
GI50: 35.6 µM (inactive)
//
COMPOUND: COC(=O)C1=C(C(=O)OC)SC2(S1)C1=C(CCC1)SC(C(=O)OC)=C2C(=O)OC
GI50: 18.8 µM (inactive)
//
COMPOUND: CC(C)=CCc1cc2c(cc1O)OC[C@H]1c3cc4c(cc3O[C@@H]21)OCO4
GI50: 40.3 µM (inactive)
//
COMPOUND: CCCCC1=NNC(=O)C1
GI50: > 100 µM (inactive)
//
COMPOUND: COC(=O)c1ccccc1C1CN=NC12Cc1c(C)c3c(c(C)c1C2=O)CCC3 (stereo not given)
GI50: 23.6 µM (inactive)
//
COMPOUND: Cc1cn(CC2=NCC(C)(C)N2)c(=O)[nH]c1=O
GI50: > 100 µM (inactive)
//
COMPOUND: C/C(=N\Nc1nc2ccccc2[nH]1)c1ccncn1
GI50: 3.64 µM (inactive)
//
COMPOUND: CCOC(=O)n1ccc2c(C(=O)OC)c(C(=O)OC)cc(/C(=C/C(=O)OC)C(=O)OC)c21
GI50: > 100 µM (inactive)
//
COMPOUND: Cc1ccc2c(C(=O)c3c(C)n(CCN4CCOCC4)c4ccccc34)cccc2c1
GI50: 17.3 µM (inactive)
//
COMPOUND: O=C(ON=c1c2ccccc2ccc2ccccc12)c1cc([N+](=O)[O-])cc([N+](=O)[O-])c1
GI50: > 100 µM (inactive)
//
COMPOUND: C(=N\c1ccc(-c2nc3ccccc3[nH]2)cc1)/c1cccs1
GI50: 51.4 µM (inactive)
//
COMPOUND: CSC(=N/C=C/c1ccccc1)SC
GI50: > 100 µM (inactive)
//
COMPOUND: CCOP(=O)(C/C=C/Cn1nc(Br)c(=O)[nH]c1=O)OCC
GI50: > 100 µM (inactive)
//
COMPOUND: CC[C@@H]1CC[C@@H]2[C@H](CC[C@]3(C)[C@@H](OC(C)=O)CC[C@@H]23)[C@H]1COC(C)=O
GI50: 20 µM (inactive)
//
COMPOUND: CCOC(=O)c1cc([N+](=O)[O-])c(Sc2ncnc3nc[nH]c23)c([N+](=O)[O-])c1
GI50: 4.92 µM (inactive)
//
COMPOUND: C=CCN(C(=O)OC(C)(C)C)[C@H](C)C(=O)N[C@@H](C)C(=O)OC
GI50: > 100 µM (inactive)
//
COMPOUND: COc1ccc(-c2c(C(C)=O)c(C)n(C3OC(CO)C(O)C(O)C3O)c(=S)c2C#N)cc1 (stereo not given)
GI50: > 100 µM (inactive)
//
COMPOUND: NCC(=O)NC1(C(=O)O)CCCC1 (H-Gly-[Ac5c]-OH)
GI50: > 100 µM (inactive)
//
COMPOUND: CC1CCC2C(C)C(=O)OC2C2(C)C(=O)C=CC12 (stereo not given)
GI50: > 10 µM (inactive)
//
COMPOUND: Cn1c2c(c3c(=O)[nH]ncc31)CCCc1ccccc1-2
GI50: 27.5 µM (inactive)
